# Test system: Hep 3B2
# Test Details: Cytotoxicity against human Hep3B cells assessed as reduction in cell viability measured after 48 hrs by MTT assay
# Assay type: cell-based
pIC50: −log10 of the molar value.
Reported pIC50 values for the following compounds.

# Chemical Smiles, pIC50
data = [
    ("CN(C)c1c([N+](=O)[O-])cc(C(=O)Nc2ccc(Cl)cc2)cc1[N+](=O)[O-]", 3.92),
    ("CCCCN(CCCC)c1c([N+](=O)[O-])cc(C(=O)Nc2ccc([N+](=O)[O-])cc2)cc1[N+](=O)[O-]", 4.51),
    ("CCCCN(CCCC)c1c([N+](=O)[O-])cc(C(=O)Nc2ccc(Cl)cc2)cc1[N+](=O)[O-]", 4.93),
]

----------
# Test System: Putative nitroreductase (Staphylococcus saprophyticus subsp. saprophyticus (strain ATCC 15305 / DSM20229 / NCIMB 8711 / NCTC 7292 / S-41), UniProt Q4A0P1)
# Test Details: Substrate activity at Staphylococcus saprophyticus nitroreductase expressed in Escherichia coli assessed as retention time […] at 100 uM by HPLC analysis (0 to 5 mins at 20 % ACN, 15 to 22 min at 80% ACN, 27-32 AT 20% ACN)
# Format: ADME
Parameter: Retention_time. Scope: all listed entries.
Measured Quantity: Retention_time (min)

# Compound, Numeric Readout
records = [
    ("O=C(Nc1ccccc1NC(=O)c1ccc([N+](=O)[O-])cc1)c1ccc([N+](=O)[O-])cc1", 21.38),
    ("O=C(c1ccc([N+](=O)[O-])cc1)N1CCOCC1", 15.17),
    ("O=C(c1ccc([N+](=O)[O-])cc1)N1CCCCC1", 18.22),
    ("O=C(Nc1ccc(NC(=O)c2ccc([N+](=O)[O-])cc2)cc1)c1ccc([N+](=O)[O-])cc1", 16.61),
    ("O=C(NC1CCCCC1NC(=O)c1ccc([N+](=O)[O-])cc1)c1ccc([N+](=O)[O-])cc1 (configuration not stated)", 20.91),
    ("O=C(NCCNC(=O)c1ccc([N+](=O)[O-])cc1)c1ccc([N+](=O)[O-])cc1", 18.65),
    ("CC(=O)Nc1cc([N+](=O)[O-])ccc1Br", 13.88),
    ("CCN(C(C)=O)c1cc([N+](=O)[O-])ccc1Br", 15.18),
    ("O=C(NC1CCC(NC(=O)c2ccc([N+](=O)[O-])cc2)CC1)c1ccc([N+](=O)[O-])cc1 (configuration not stated)", 19.96),
    ("O=C(c1ccc([N+](=O)[O-])cc1)N1CCN(C(=O)c2ccc([N+](=O)[O-])cc2)CC1", 17.28),
    ("O=C(NCCCCNC(=O)c1ccc([N+](=O)[O-])cc1)c1ccc([N+](=O)[O-])cc1", 19.02),
    ("O=C(Nc1cccc(NC(=O)c2ccc([N+](=O)[O-])cc2)c1)c1ccc([N+](=O)[O-])cc1", 21.88),
]

----------
Measured half-life values are reported for all entries that follow.
# Test System: Staphylococcus saprophyticus nitroreductase (Staphylococcus saprophyticus subsp. saprophyticus (strain ATCC 15305 / DSM20229 / NCIMB 8711 / NCTC 7292 / S-41), UniProt Q4A0P1)
# Sequence (Q4A0P1 whole entry): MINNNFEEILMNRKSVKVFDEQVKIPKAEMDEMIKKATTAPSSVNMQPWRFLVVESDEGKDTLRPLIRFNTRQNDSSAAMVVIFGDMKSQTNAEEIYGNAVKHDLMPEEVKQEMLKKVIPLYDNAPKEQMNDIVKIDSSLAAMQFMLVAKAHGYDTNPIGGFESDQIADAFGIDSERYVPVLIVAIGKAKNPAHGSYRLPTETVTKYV
# Test Details: Substrate activity at Staphylococcus saprophyticus nitroreductase expressed in Escherichia coli assessed as half life […] at 150 uM by HPLC analysis (0 to 5 mins at 20 % ACN, 15 to 22 min at 80% ACN, 27-32 AT 20% ACN)
# Type: ADME
Measured Quantity: half-life

# Chemical Smiles, Result
data = [
    ("CC(=O)Nc1cc([N+](=O)[O-])cc([N+](=O)[O-])c1", "< 6 min"),
    ("CCN(C(C)=O)c1cc([N+](=O)[O-])cc([N+](=O)[O-])c1", "< 1.2 min"),
]
